Test system: NCI/ADR-RES ovarian
Test: NCI tumour cell line growth inhibition, 48 h
Where a SMILES comes first, the peptide text is derived from it. The star is where a group is joined. Palmitoyl = CCCCCCCCCCCCCCCC(=O)*
Please provide measured TGI for the entries that follow.
Please respond with the number in µM and leave the unit unwritten.

# get_value(readout='TGI', item= `O=C(/C=C/c1ccc(Oc2cc(C(=O)/C=C/c3ccc(O)cc3)c(O)cc2O)cc1)c1ccc(O)cc1O` ) 22.7

What do you get for `CCN(CC)CCCCCCNc1cc(OC)cc2cccnc12` ? 27.3

Do the same for `CC(C)(Br)C(=O)C(Br)Br` please 12.6

Same lookup for `Oc1ccc2cc(Br)ccc2c1-c1c(O)ccc2ccc(Br)cc12` , please. 27.7

Another compound to look at: CCCCCCCCCCCCCCCC(=O)N1CCCC1C(=O)NCC(=O)NC(Cc1ccccc1)C(=O)NC(C)C(=O)NC(CO)C(=O)NC(Cc1ccc(O)cc1)C(=O)NC(CCCCN)C(=O)NC(CC(C)C)C(=O)NC(CCCN=C(N)N)C(=O)N1CCCC1C(=O)NCC(N)=O (centres undefined) (Palmitoyl-PGFASYKLRPG-NH2; configuration not given here) 35

---

Here we list compounds with their recorded GI50 when tested on MDA-MB-435.
Where a SMILES comes first, the peptide text is derived from it. The star is where a group is joined. Palmitoyl = CCCCCCCCCCCCCCCC(=O)*

So what's the measured GI50 for this one? `O=C(CCCCCCN1CC(=O)N2[C@@H](c3ccc(Cl)c(Cl)c3)c3[nH]c4ccccc4c3C[C@H]2C1=O)NO` 3130 nM

How about COC1=C(OC)C(=O)C(SC/C=C(\C)CCCC(C)CCCC(C)CCCC(C)C)=CC1=O (stereo unspecified) ? 845 nM

Then what about the compound `CSc1nc2sc3c(c2c(=O)n1-c1ccc(C(C)C)cc1)CCC(=O)C3` ? 1850 nM

Then this compound: `O=C(Nc1cccc(-n2cc(-c3ccncc3)c(-c3cc(O)cc(Cl)c3)n2)c1)c1cc(C(F)(F)F)cc(C(F)(F)F)c1` 3160 nM

Let us now turn to `O=[N+]([O-])c1ccc(N2CCOCC2)c2c1no[n+]2[O-]` 2150 nM

What do we get for `O=C(/C=C/c1cccc(O)c1)c1cccc(-n2cc(-c3ccccc3)[nH]c2=O)c1` ? 2530 nM

Another compound to look at: `COc1cc2nc(-c3cc(F)ccc3O)nc(N[C@@H]3CNC[C@H]3C(C)(C)O)c2cc1OC` 1650 nM

What about this compound? `CC(C)(O)CNc1nc(Nc2ccnc(C(F)(F)F)c2)nc(-c2cccc(C(F)(F)F)n2)n1` 15800 nM

Same again, this time with COC1C(O)C(CO)OC(OC2C(O)COC(OC3C(C)OC(OC4C(O[C@H]5CC[C@@]6(C)C(CC=C7[C@H]6CCC68C(=O)O[C@@](C)(CCCC(C)C)[C@H]6[C@@H](OC(C)=O)C[C@@]78C)C5(C)C)OCC(OS(=O)(=O)O)C4O)C(OC4OCC(O)C(O)C4O)C3O)C2O)C1O (stereo partly specified) 196 nM

Can you check `CCc1cccc(C)c1NC(=O)c1sc2nc3c(cc2c1N)C(=O)CCC3` next? 159 nM

`Cc1cc(C)nc(SC2=C(Nc3cc(Cl)ccc3O)C(=O)N(Cc3ccccc3)C2=O)n1` , same question. 62200 nM

Check CCCCCCCCCCCCCCCC(=O)N1CCCC1C(=O)NCC(=O)NC(Cc1ccccc1)C(=O)NC(C)C(=O)NC(CO)C(=O)NC(Cc1ccc(O)cc1)C(=O)NC(CCCCN)C(=O)NC(CC(C)C)C(=O)NC(CCCN=C(N)N)C(=O)N1CCCC1C(=O)NCC(N)=O (stereo unspecified) (Palmitoyl-PGFASYKLRPG-NH2; configuration not given here) too. 14000 nM

Now consider `COc1cc2c(cc1OCCCCN1CCN(C(=S)SCCC(C#N)(c3ccccc3)c3ccccc3)CC1)N=C[C@@H]1CCCN1C2=O` . 1040 nM

And `CC(=O)NCc1cccc(C#Cc2cncnc2Nc2ccc(OCc3cccc(F)c3)c(Cl)c2)c1` ? 8410 nM

Next: O=C(CC1(O)C(=O)N(Cc2ccccc2)c2ccccc21)c1ccc(C(=O)NCC2CCC3(CC2)OOC2(CCCCC2)OO3)cc1 (stereo unspecified) 875 nM

Please answer likewise for `N#CCCN1C/C(=C/c2ccc(Cl)cc2)C(=O)/C(=C/c2ccc(Cl)cc2)C1` 1370 nM

---

System: HOP-92 NSCLC
Test: NCI tumour cell line growth inhibition, 48 h
Give measured log10 of TGI for each item. Keep answers brief.
The figures below represent log10 of TGI, where TGI is stated in µM.

For the compound shown here, COC(=O)c1cc2c(c3c1CC(Cc1ccccc1)C3=O)CCC2 (stereo not given) , give the reported log10 of TGI. 1.89

Try this compound next: OCCNC1c2cc(Cl)ccc2-c2c(Cl)cc(Cl)cc21 (stereo not given) 1.75

`O=C(CCCCCCN1CC(=O)N2[C@@H](c3ccc(Cl)c(Cl)c3)c3[nH]c4ccccc4c3C[C@H]2C1=O)NO` ? 0.87

Can you check CCOC(=O)C(C(=O)OCC)=C1NC2(c3ccccc3Nc3ccccc32)C(C#N)S1 (stereo not given) next? 1.19

Please give the result for `Cc1cc(C)nc(SC2=C(Nc3cc(Cl)ccc3O)C(=O)N(Cc3ccccc3)C2=O)n1` too. 1.84

Follow-up entry: `c1ccc(-c2nc(N3CCNCC3)c3oc(-c4ccccc4)nc3n2)cc1` 0.49

Note, next up: C=C1CC(c2ccc(OCCCN3C(=O)c4ccccc4C3=O)cc2)OC1=O (stereo not given) 0.48

Check Cc1cccc2c3c(sc12)C(c1ccc(Cl)cc1)C(C#N)=C(N)O3 (stereo not given) too. 1.28

Param item: `CCCCc1ccc(-n2sc3ncc(C)cc3c2=O)cc1` 1.94

Same lookup for `Cc1ccc(-c2nc([P+](c3ccccc3)(c3ccccc3)c3ccccc3)c(S(=O)(=O)c3ccc(C)cc3)o2)cc1` , please. 0.50

One more compound: `Nc1nc(Nc2ccccc2SSc2ccccc2Nc2nc(N)nc(C(Cl)(Cl)Cl)n2)nc(C(Cl)(Cl)Cl)n1` 1.33

Also `Nc1nc(Nc2ccccc2)c2[nH]cnc2n1` , if possible. 1.97

For `CN(CCNCc1ccccn1)CCNCc1ccccn1` then? 0.72

Try this compound too: `COc1ccc(-c2nc(/C=C3\SC(=NCc4ccccc4)NC3=O)c3ccccn23)cc1` 0.53

What do you have for `O=[N+]([O-])/C(C(Cl)=C(Cl)Cl)=C(/Cl)SCc1ccccc1` ? 0.95

Again, but for `Cc1cn(CCCCC2=NCCCN2)c(=O)[nH]c1=O` 1.26

For `O=C(/C=C/c1ccc(Oc2cc(C(=O)/C=C/c3ccc(O)cc3)c(O)cc2O)cc1)c1ccc(O)cc1O` then? 1.74

Thanks! And `O=[N+]([O-])c1ccc(N2CCOCC2)c2c1no[n+]2[O-]` ? 0.75

Moving on to the next compound: `CCC(=O)C(CCN1CCC2(CCCc3ccccc32)CC1)(c1ccccc1)c1ccccc1` 0.61

What do we get for `O=[N+]([O-])c1ccc(C(=S)Nc2ccccc2)o1` ? 1.50

Let us now turn to `CC(C)(O)CNc1nc(Nc2ccnc(C(F)(F)F)c2)nc(-c2cccc(C(F)(F)F)n2)n1` 1.87

And `Oc1ccc(C(c2ccc(O)cc2)c2ccc(Br)cn2)cc1` ? 0.16

Try the compound `CCN(CC)CCCCCCNc1cc(OC)cc2cccnc12` 1.44

Record: `Cc1cc(N(CCC#N)CCC#N)ccc1/C(N=Nc1cccc(Cl)c1)=N/NC(=O)c1cc(Cl)ccc1O` 1.63

---

System: HCT-116 colon
Experiment: NCI tumour cell line growth inhibition, 48 h
recordedEndpoint: TGI

Fill in: TGI of `O=[N+]([O-])c1ccc(C(=S)Nc2ccccc2)o1` is ___ 4.67 µM

CC1(C)CC(=O)C2=C(C1)OC(N)=C(c1nc(-c3ccccc3)cs1)C2c1ccc(Br)cc1 (stereo not given) ? > 150 µg/mL

Moving on to the next compound: Cc1ccc(NC(=O)CC2C(=O)Nc3ccccc3S2(=O)=O)c(C)c1 (stereo not given) 24.9 µM

Query `Oc1c(I)cc(I)c2cccnc12` next 13.5 µM

Quick one: CCOC(=O)C(=CNc1ccc(NC2=NCC(C)S2)cc1)C(=O)OCC (stereo not given) > 100 µM

Next: `COC(=O)c1c(C)n([O-])c2cc(Cl)c(Cl)cc2[n+]1=O` > 100 µM

Same read-out for Nc1ccc2c(c1)nc1n2C(c2c(F)cccc2F)SC1 (stereo not given) ? > 100 µM

Item: `C[C@]12C[C@@H](OC(=O)[C@]1(C)O)[C@@H]([C@]1(O)CC[C@H]3[C@@H]4C[C@H]5O[C@]56C[C@H]5O[C@H]5C(=O)[C@]6(C)[C@H]4CC[C@@]31C)C2` > 50 µM

Request: `c1cc2nnc1SCCCSc1ccc(nn1)SCCCS2` > 54.1 µM

Also CC12C=CC(=O)C=C1CCC1C3CCC(O)(C(=O)CO)C3(C)CC(O)C12F (stereo not given) , if possible. > 100 µM

Subsequent entry: `N#Cc1nc(-c2ccco2)oc1N` > 10 µM

Also check `OC(C#Cc1ccccc1)(c1ccccc1)c1ccccc1` > 100 µM

Also need `O=C(/C=C/c1ccccc1)Oc1ccc(C(=O)/C=C/c2ccc(Cl)cc2)cc1` , thanks. > 100 µM

Same again, this time with `Fc1ccc(N2C(=S)SC(=Nc3ccccc3)C2=Nc2ccccc2)cc1` > 100 µM

Request: C[N+](C)(C)CC1CCCC1=O (stereo not given) 3.74 µM

Then `O=S(=O)(c1cccc(N=C=S)c1)c1cccc(N=C=S)c1` ? 32 µM

Now the compound Nc1[nH]c(=O)nc2c1cnn2C1CCCCO1 (stereo not given) > 100 µM

Now consider CC(C)=CCN1CC(C)C(=O)Nc2ccccc21 (stereo not given) and answer again. > 100 µM

Then what about the compound `Cc1ccc(S(=O)(=O)N/N=C(/CC(=O)c2c(C)n([O-])c3ccccc3[n+]2=O)C(=O)Nc2ccccc2C)cc1` ? > 100 µM

Next compound up: CC1OC(OC2C(O)CC(OC3C(O)CC(OC4CCC5(C)C(CCC6C5CC(O)C5(C)C(C7=CC(=O)OC7)CCC65O)C4)OC3C)OC2C)CC(O)C1O (stereo not given) 0.115 µM

Next entry: CCOC(=O)N1N=C(/C(C)=N/OC)C(C)S1=O (stereo not given) > 100 µM

Can you check `O=[N+]([O-])c1ccc(N2CCOCC2)c2c1no[n+]2[O-]` next? 2.24 µM

Check COC(=O)C(CCSC)NC(=O)CNC(=O)CSc1nnc(COc2ccc(Cl)cc2)n1-c1ccccc1 (stereo not given) too. 30.5 µM

Follow-up entry: CCCCCCCC1(N=[N+]=[N-])C(=O)Nc2ccccc2C1=O (stereo not given) 32.6 µM

Repeat for the following compound: CC(N)Cc1ccc(Cl)c(Cl)c1 (stereo not given) > 100 µM

Same question, N#CC(c1ccccn1)c1nc2ccccc2[nH]1 (stereo not given) this time > 100 µM

Subsequent entry: `Cn1cc(C2=C(c3cccc(OC[C@@H](O)CO)c3)C(=O)NC2=O)c2ccccc21` > 25 µM

Also COC(=O)c1cc2c(c3c1CC(Cc1ccccc1)C3=O)CCC2 (stereo not given) , if possible. > 100 µM

And for `Nc1nc(Nc2ccccc2)c2[nH]cnc2n1` ? > 100 µM

Quick one: `O=C(CCC1C(=O)NC(=S)NC1=O)c1ccc2ccccc2c1` > 100 µM
